Numbers sourced from patent EP4656642A1.

biological target: ERα (Homo sapiens); experiment: Degradation of ERα in MCF-7 cells (immunoblotting, 4 h); assay type: cell-based; conditions: 10nM compound
Sequence (P03372 whole entry): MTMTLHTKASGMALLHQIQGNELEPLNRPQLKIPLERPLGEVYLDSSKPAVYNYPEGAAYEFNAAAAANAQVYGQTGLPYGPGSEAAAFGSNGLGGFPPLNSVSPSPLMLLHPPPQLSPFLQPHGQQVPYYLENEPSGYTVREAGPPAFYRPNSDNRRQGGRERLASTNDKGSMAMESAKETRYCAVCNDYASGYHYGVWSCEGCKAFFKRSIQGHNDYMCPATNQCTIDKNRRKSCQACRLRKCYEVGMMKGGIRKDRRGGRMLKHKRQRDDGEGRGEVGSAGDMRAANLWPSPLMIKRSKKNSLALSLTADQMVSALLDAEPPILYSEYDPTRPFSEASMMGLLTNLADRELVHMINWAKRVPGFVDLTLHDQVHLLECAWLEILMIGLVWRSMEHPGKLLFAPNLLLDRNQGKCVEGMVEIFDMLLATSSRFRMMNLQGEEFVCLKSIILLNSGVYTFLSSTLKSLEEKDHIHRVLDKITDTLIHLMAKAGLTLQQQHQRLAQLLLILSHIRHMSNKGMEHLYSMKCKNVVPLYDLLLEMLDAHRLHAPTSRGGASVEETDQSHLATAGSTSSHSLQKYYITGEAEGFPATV
Measured Quantity: Degradation rate (%) of ERα in MCF-7 cells

Compound | Quantitative Result
O=C1CCC(N2Cc3c(ccc4c3OCC43CCN(C(=O)CN4CC[C@]5(CCN(c6ccc([C@@H]7c8ccc(O)cc8CC[C@@H]7c7ccccc7)cc6)C5)C4)CC3)C2=O)C(=O)N1 (some centres unmarked) [H21] | 37
O=C1CCC(N2Cc3c(ccc4c3OCC43CCN(C4CCN(C(=O)C5CCN(c6ccc(C7c8ccc(O)cc8CCC7c7ccccc7)cc6)CC5)C(C(=O)N5CCCCC5)C4)CC3)C2=O)C(=O)N1 (centres unmarked) [K31] | 65
O=C1CCC(N2Cc3c(ccc4c3OCC43CCN(C4CCN(C(=O)C5CCN(c6ccc([C@@H]7c8ccc(O)cc8CC[C@@H]7c7ccccc7)cc6)CC5)[C@H](C(=O)N5CCC5)C4)CC3)C2=O)C(=O)N1 (some centres unmarked) [H45] | 61
O=C1CCC(N2Cc3c(ccc4c3OCC43CCN(C(=O)CN4CCC5(CCN(c6ccc([C@@H]7c8ccc(O)cc8CC[C@@H]7c7ccccc7)cc6)C5)C4)CC3)C2=O)C(=O)N1 (some centres unmarked) [H13] | 62
O=C1CCC(N2Cc3ccc4c(c3C2=O)OCC42CCN(C3CCN(C(=O)C4CCN(c5ccc([C@@H]6c7ccc(O)cc7CC[C@@H]6c6ccccc6)cc5)CC4)CC3)CC2)C(=O)N1 (some centres unmarked) [A94] | 48
